Where do these numbers come from? They come from paper doi:10.1101/2022.02.07.479474.

# TARGET_ENTITY: PBRM1 BD2 (UniProt Q86U86 178-291)
# Sequence (Q86U86 178-291): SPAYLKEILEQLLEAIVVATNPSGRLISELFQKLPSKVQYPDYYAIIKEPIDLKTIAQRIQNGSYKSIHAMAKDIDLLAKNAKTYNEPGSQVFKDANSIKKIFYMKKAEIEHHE
# TEST: NMR
METRIC_NAME: Kd (µM)
Report the value in µM with no unit label.

May I ask what Kd has been recorded for GCGUAGACAGCUGUUCGCAGCUGUCUAUGC (structured_RNA) [dsRNAI] ?
25
